Molecular target: heterotetrameric CNGA2:CNGA4:CNGB1b channels (Rattus norvegicus, UniProt A0A8I5ZN27+Q00195+Q64359)
Construct: expressed in transfected cells; host or cells: Xenopus laevis oocytes co-injected with cRNAs (2:1:1); inside-out patches
Sequence (Q00195 whole entry): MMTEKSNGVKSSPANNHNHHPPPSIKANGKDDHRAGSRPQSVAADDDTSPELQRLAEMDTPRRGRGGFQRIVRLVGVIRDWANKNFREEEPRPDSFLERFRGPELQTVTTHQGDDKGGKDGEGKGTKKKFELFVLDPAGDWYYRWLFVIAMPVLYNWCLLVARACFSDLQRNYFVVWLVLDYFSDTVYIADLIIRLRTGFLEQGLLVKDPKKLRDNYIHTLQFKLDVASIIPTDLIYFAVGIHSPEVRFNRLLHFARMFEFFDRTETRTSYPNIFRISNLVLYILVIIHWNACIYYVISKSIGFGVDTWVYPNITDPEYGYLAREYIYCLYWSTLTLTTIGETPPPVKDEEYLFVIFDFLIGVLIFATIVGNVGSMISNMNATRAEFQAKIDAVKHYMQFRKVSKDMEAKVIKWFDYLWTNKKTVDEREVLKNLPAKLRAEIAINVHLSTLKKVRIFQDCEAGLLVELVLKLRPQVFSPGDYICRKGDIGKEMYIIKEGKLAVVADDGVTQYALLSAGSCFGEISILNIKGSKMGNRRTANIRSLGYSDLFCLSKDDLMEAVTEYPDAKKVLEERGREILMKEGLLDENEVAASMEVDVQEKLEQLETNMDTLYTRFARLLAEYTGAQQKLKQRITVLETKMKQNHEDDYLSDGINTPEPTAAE
Sequence (Q64359 whole entry): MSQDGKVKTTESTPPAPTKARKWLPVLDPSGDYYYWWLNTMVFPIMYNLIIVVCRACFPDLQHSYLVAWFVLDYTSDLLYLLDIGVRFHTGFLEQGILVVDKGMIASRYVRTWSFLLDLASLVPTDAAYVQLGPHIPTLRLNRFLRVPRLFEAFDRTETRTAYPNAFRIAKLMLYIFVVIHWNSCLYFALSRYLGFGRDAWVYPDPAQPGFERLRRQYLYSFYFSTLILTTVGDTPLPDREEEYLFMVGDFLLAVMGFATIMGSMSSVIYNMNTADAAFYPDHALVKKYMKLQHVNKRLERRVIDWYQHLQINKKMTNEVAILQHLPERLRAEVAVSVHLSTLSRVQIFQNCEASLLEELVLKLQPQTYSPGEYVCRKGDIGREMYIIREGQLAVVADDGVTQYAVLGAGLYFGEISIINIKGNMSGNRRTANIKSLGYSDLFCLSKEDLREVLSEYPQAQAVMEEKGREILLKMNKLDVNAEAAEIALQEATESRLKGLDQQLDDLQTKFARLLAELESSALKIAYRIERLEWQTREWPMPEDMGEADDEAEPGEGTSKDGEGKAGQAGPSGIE
Sequence (A0A8I5ZN27 1-858 isoform A0A8I5ZN27-2): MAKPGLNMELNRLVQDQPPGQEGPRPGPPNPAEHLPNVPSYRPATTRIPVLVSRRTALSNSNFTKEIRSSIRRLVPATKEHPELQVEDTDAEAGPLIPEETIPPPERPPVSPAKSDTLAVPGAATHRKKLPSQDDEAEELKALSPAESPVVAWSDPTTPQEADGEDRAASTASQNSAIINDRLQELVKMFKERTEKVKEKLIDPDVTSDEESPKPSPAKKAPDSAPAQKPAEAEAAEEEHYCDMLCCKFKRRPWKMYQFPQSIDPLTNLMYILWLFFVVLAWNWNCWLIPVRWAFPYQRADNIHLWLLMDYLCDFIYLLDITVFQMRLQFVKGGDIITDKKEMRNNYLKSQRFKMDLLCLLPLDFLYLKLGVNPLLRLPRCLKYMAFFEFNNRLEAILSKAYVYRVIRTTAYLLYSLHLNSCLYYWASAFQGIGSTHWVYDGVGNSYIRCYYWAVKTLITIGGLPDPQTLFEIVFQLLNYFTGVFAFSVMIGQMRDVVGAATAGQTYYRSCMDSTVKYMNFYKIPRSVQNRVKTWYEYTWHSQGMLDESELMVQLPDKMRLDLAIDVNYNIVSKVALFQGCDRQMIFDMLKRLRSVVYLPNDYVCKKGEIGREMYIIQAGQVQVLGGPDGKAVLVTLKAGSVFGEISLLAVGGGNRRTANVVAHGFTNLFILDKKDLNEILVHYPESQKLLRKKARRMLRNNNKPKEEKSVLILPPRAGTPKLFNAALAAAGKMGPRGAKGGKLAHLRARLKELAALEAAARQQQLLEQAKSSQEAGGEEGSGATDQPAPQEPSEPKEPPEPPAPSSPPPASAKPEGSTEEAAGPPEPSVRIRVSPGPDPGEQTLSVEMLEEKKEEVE
Experiment: Concentration-activation relationship of heterotetrameric CNGA2:CNGA4:CNGB1b channels, inside-out patches of Xenopus oocytes
Type: cell-based
Details: heterotetrameric CNGA2:CNGA4:CNGB1b channels; late current at +10 mV; mean
pEC50: −log10 of the molar value.
Consider the following compounds and their measured pEC50 readings.
REPORTED ENDPOINT: pEC50

>>> readout_value("NCCCCCCSc1nc2c(=O)[nH]c(N)nc2n1C1OC2COP(=O)(O)OC2C1O (centres unmarked)")
6.21
>>> readout_value("CC(=O)NCC(=O)NCCSc1nc2c(=O)[nH]c(N)nc2n1C1OC2COP(=O)(O)OC2C1O (centres unmarked) [10G, 8-(Ac)AGET-cGMP]")
6.20
>>> readout_value("NCCCCCCCCCCSc1nc2c(=O)[nH]c(N)nc2n1C1OC2COP(=O)(O)OC2C1O (centres unmarked)")
6.52
>>> readout_value("NCCSc1nc2c(N)ncnc2n1C1OC2COP(=O)(O)OC2C1O (centres unmarked)")
4.88
>>> readout_value("NCCCCCCCCCCSc1nc2c(N)ncnc2n1C1OC2COP(=O)(O)OC2C1O (centres unmarked)")
6.54
>>> readout_value("CC(=O)NCCSc1nc2c(=O)[nH]c(N)nc2n1C1OC2COP(=O)(O)OC2C1O (centres unmarked)")
6.55
>>> readout_value("CC(=O)NCCCCCCSc1nc2c(=O)[nH]c(N)nc2n1C1OC2COP(=O)(O)OC2C1O (centres unmarked)")
6.64
>>> readout_value("NCCSc1nc2c(=O)[nH]c(N)nc2n1C1OC2COP(=O)(O)OC2C1O (centres unmarked)")
5.82

---

Molecular target: heterotetrameric CNGA2:CNGA4:CNGB1b channels (Rattus norvegicus, UniProt A0A8I5ZN27+Q00195+Q64359)
Construct: expressed in transfected cells; host or cells: Xenopus laevis oocytes co-injected with cRNAs (2:1:1); inside-out patches
Assay: Concentration-activation relationship of heterotetrameric CNGA2:CNGA4:CNGB1b channels, inside-out patches of Xenopus oocytes
Format: cell-based
Conditions: heterotetrameric CNGA2:CNGA4:CNGB1b channels; mean
REPORTED ENDPOINT: H (Hill coefficient)

>>> readout_value("CC(=O)NCC(=O)NCC(=O)NCCSc1nc2c(N)ncnc2n1C1OC2COP(=O)(O)OC2C1O (stereo not shown) [11A, 8-(Ac)AGGET-cAMP]")
2.5
>>> readout_value("CC(=O)NCC(=O)NCCSc1nc2c(N)ncnc2n1C1OC2COP(=O)(O)OC2C1O (stereo not shown) [10A, 8-(Ac)AGET-cAMP]")
2.2
>>> readout_value("NCCCCCCCCCCSc1nc2c(N)ncnc2n1C1OC2COP(=O)(O)OC2C1O (stereo not shown)")
3.9
>>> readout_value("NCCSc1nc2c(=O)[nH]c(N)nc2n1C1OC2COP(=O)(O)OC2C1O (stereo not shown)")
1.8
>>> readout_value("CC(=O)NCCSc1nc2c(N)ncnc2n1C1OC2COP(=O)(O)OC2C1O (stereo not shown)")
1.8
>>> readout_value("NCCCCCCSc1nc2c(N)ncnc2n1C1OC2COP(=O)(O)OC2C1O (stereo not shown)")
2.5
>>> readout_value("Nc1nc2c(ncn2C2OC3COP(=O)(O)OC3C2O)c(=O)[nH]1 (stereo not shown) [1G, cGMP, reference compound]")
2.5
>>> readout_value("CC(=O)NCC(=O)NCCSc1nc2c(=O)[nH]c(N)nc2n1C1OC2COP(=O)(O)OC2C1O (stereo not shown) [10G, 8-(Ac)AGET-cGMP]")
1.9
>>> readout_value("CC(=O)NCCOCCOCCSc1nc2c(N)ncnc2n1C1OC2COP(=O)(O)OC2C1O (stereo not shown)")
2.2
>>> readout_value("CC(=O)NCCSc1nc2c(=O)[nH]c(N)nc2n1C1OC2COP(=O)(O)OC2C1O (stereo not shown)")
2.0
>>> readout_value("NCCCCCCCCCCSc1nc2c(=O)[nH]c(N)nc2n1C1OC2COP(=O)(O)OC2C1O (stereo not shown)")
1.6
>>> readout_value("CC(=O)NCCCCCCSc1nc2c(=O)[nH]c(N)nc2n1C1OC2COP(=O)(O)OC2C1O (stereo not shown)")
2.0
>>> readout_value("CC(=O)NCC(=O)NCC(=O)NCCSc1nc2c(=O)[nH]c(N)nc2n1C1OC2COP(=O)(O)OC2C1O (stereo not shown) [11G, 8-(Ac)AGGET-cGMP]")
1.7
>>> readout_value("NCCCCCCSc1nc2c(=O)[nH]c(N)nc2n1C1OC2COP(=O)(O)OC2C1O (stereo not shown)")
1.3
>>> readout_value("CC(=O)NCCCCCCCCCCSc1nc2c(N)ncnc2n1C1OC2COP(=O)(O)OC2C1O (stereo not shown)")
2.7
>>> readout_value("CC(=O)NCCCCCCSc1nc2c(N)ncnc2n1C1OC2COP(=O)(O)OC2C1O (stereo not shown)")
2.5

---

Molecular target: homotetrameric CNGA2 channels (Rattus norvegicus)
Construct: expressed in transfected cells; host or cells: Xenopus laevis oocytes injected with cRNA; inside-out patches
Assay: Concentration-activation relationship of homotetrameric CNGA2 channels, inside-out patches of Xenopus oocytes
Assay type: cell-based
Settings: homotetrameric CNGA2 channels; mean
Consider the following molecules and their measured H (Hill coefficient) readings.
REPORTED ENDPOINT: H (Hill coefficient)

>>> readout_value("Nc1nc2c(ncn2C2OC3COP(=O)(O)OC3C2O)c(=O)[nH]1 (stereo not shown) [1G, cGMP, reference compound]")
2.6
>>> readout_value("CC(=O)NCC(=O)NCCSc1nc2c(N)ncnc2n1C1OC2COP(=O)(O)OC2C1O (stereo not shown) [10A, 8-(Ac)AGET-cAMP]")
2.1
>>> readout_value("CC(=O)NCCCCCCSc1nc2c(=O)[nH]c(N)nc2n1C1OC2COP(=O)(O)OC2C1O (stereo not shown)")
2.7
>>> readout_value("CC(=O)NCCSc1nc2c(N)ncnc2n1C1OC2COP(=O)(O)OC2C1O (stereo not shown)")
2.3

---

Biological target: homotetrameric CNGA2 channels (Rattus norvegicus, UniProt Q00195)
Construct: expressed in transfected cells; host or cells: Xenopus laevis oocytes injected with cRNA; inside-out patches
Sequence (Q00195 whole entry): as the sequence (Q00195 whole entry) above
Assay: Concentration-activation relationship of homotetrameric CNGA2 channels, inside-out patches of Xenopus oocytes
Assay type: cell-based
Details: homotetrameric CNGA2 channels; mean
Consider the following compounds and their measured H (Hill coefficient) readings.
REPORTED ENDPOINT: H (Hill coefficient)

>>> readout_value("CC(=O)NCCCCCCCCCCSc1nc2c(=O)[nH]c(N)nc2n1C1OC2COP(=O)(O)OC2C1O (stereo not drawn)")
2.2
>>> readout_value("CC(=O)NCCCCCCCCCCSc1nc2c(N)ncnc2n1C1OC2COP(=O)(O)OC2C1O (stereo not drawn)")
2.4
>>> readout_value("CC(=O)NCCOCCOCCSc1nc2c(=O)[nH]c(N)nc2n1C1OC2COP(=O)(O)OC2C1O (stereo not drawn)")
2.7
>>> readout_value("CC(=O)NCCOCCOCCSc1nc2c(N)ncnc2n1C1OC2COP(=O)(O)OC2C1O (stereo not drawn)")
2.4
>>> readout_value("NCCCCCCSc1nc2c(=O)[nH]c(N)nc2n1C1OC2COP(=O)(O)OC2C1O (stereo not drawn)")
2.5
>>> readout_value("NCCCCCCCCCCSc1nc2c(N)ncnc2n1C1OC2COP(=O)(O)OC2C1O (stereo not drawn)")
2.3

---

Molecular target: homotetrameric CNGA2 channels (Rattus norvegicus, UniProt Q00195)
Construct: expressed in transfected cells; host or cells: Xenopus laevis oocytes injected with cRNA; inside-out patches
Assay: Concentration-activation relationship of homotetrameric CNGA2 channels, inside-out patches of Xenopus oocytes
Type: cell-based
Details: homotetrameric CNGA2 channels; late current at +10 mV; mean
pEC50: −log10 of the molar value.
Consider the following compounds and their measured pEC50 readings.
REPORTED ENDPOINT: pEC50

>>> readout_value("CC(=O)NCCCCCCSc1nc2c(N)ncnc2n1C1OC2COP(=O)(O)OC2C1O (centres unmarked)")
5.85
>>> readout_value("CC(=O)NCCOCCOCCC(=O)NCCSc1nc2c(N)ncnc2n1C1OC2COP(=O)(O)OC2C1O (centres unmarked)")
4.34
>>> readout_value("NCCCCCCSc1nc2c(=O)[nH]c(N)nc2n1C1OC2COP(=O)(O)OC2C1O (centres unmarked)")
7.05
>>> readout_value("CC(=O)NCC(=O)NCCSc1nc2c(N)ncnc2n1C1OC2COP(=O)(O)OC2C1O (centres unmarked) [10A, 8-(Ac)AGET-cAMP]")
4.47
>>> readout_value("CC(=O)NCC(=O)NCC(=O)NCCSc1nc2c(N)ncnc2n1C1OC2COP(=O)(O)OC2C1O (centres unmarked) [11A, 8-(Ac)AGGET-cAMP]")
4.53
>>> readout_value("NCCCCCCCCCCSc1nc2c(N)ncnc2n1C1OC2COP(=O)(O)OC2C1O (centres unmarked)")
6.20
>>> readout_value("CC(=O)NCC(=O)NCCSc1nc2c(=O)[nH]c(N)nc2n1C1OC2COP(=O)(O)OC2C1O (centres unmarked) [10G, 8-(Ac)AGET-cGMP]")
6.47
>>> readout_value("Nc1nc2c(ncn2C2OC3COP(=O)(O)OC3C2O)c(=O)[nH]1 (centres unmarked) [1G, cGMP, reference compound]")
5.74
>>> readout_value("NCCCCCCCCCCSc1nc2c(=O)[nH]c(N)nc2n1C1OC2COP(=O)(O)OC2C1O (centres unmarked)")
7.22
>>> readout_value("CC(=O)NCCOCCOCCC(=O)NCCSc1nc2c(=O)[nH]c(N)nc2n1C1OC2COP(=O)(O)OC2C1O (centres unmarked)")
6.28
>>> readout_value("CC(=O)NCCOCCOCCSc1nc2c(N)ncnc2n1C1OC2COP(=O)(O)OC2C1O (centres unmarked)")
4.60
>>> readout_value("CC(=O)NCCOCCOCCSc1nc2c(=O)[nH]c(N)nc2n1C1OC2COP(=O)(O)OC2C1O (centres unmarked)")
6.26
>>> readout_value("CC(=O)NCCCCCCCCCCSc1nc2c(N)ncnc2n1C1OC2COP(=O)(O)OC2C1O (centres unmarked)")
5.64
>>> readout_value("CC(=O)NCCCCCCSc1nc2c(=O)[nH]c(N)nc2n1C1OC2COP(=O)(O)OC2C1O (centres unmarked)")
7.10
>>> readout_value("CC(=O)NCCCCCCCCCCSc1nc2c(=O)[nH]c(N)nc2n1C1OC2COP(=O)(O)OC2C1O (centres unmarked)")
7.30
>>> readout_value("NCCCCCCSc1nc2c(N)ncnc2n1C1OC2COP(=O)(O)OC2C1O (centres unmarked)")
5.51
>>> readout_value("CC(=O)NCC(=O)NCC(=O)NCCSc1nc2c(=O)[nH]c(N)nc2n1C1OC2COP(=O)(O)OC2C1O (centres unmarked) [11G, 8-(Ac)AGGET-cGMP]")
6.48
